- measured-on: T1, Abeta peptide (40-amino acid Abeta peptide, SEQ ID NO: 1), biotinylated (human, N-terminal biotin or C-terminal lysine-linked biotin, separated from the peptide by a PEG6 linker)
- T1 construct: Synthesized by Genscript; also called amyloid beta; test peptide
- measurement-notes: BLI (Octet HTX), biotinylated Abeta on streptavidin sensors, 1 uM VHH, 1:1 fit
readout-kind: Kd (nM)

// below: answered binders
binder: vhhLib02-37 (VHH, The entry as printed includes HHHHHH; also called vhbLib02-37) VHH: EVQLVESGGGLVQPGGSLRLSCAASGFTFSDYVMSWYRQAPGKQRELVSAIISGEDTYYADSVKGRFTISRDNSKNTLYLQMNSLRAEDTAVYYCARYVHKSTWYYFDHWGQGTLVTVSS
recorded-result: 328
--
binder: vhhLib05-83 (VHH, The entry as printed includes a doubled TLVTVSS-like stretch and HHHHHH) VHH: EVQLLESGGGLVQPGGSLRLSCAASGFTFSNYAMSWVRQAPGKQREWVSAISGSGGSTYYADSVKGRFTISRDNSKNTLYLQMNSLRAEDTAVYYCARLFLQQADGLYYYYAFDPWGQGTPVTVSS
recorded-result: 292
--
binder: vhhLib05-33 (VHH, The entry as printed includes a doubled TLVTVSS and HHHHHH; also called vhbLib05-33) VHH: EVQLLESGGGLVQPGGSLRLSCAASGFTFSSYAMSWVRQAPGKQREWVSAISGSGGSTYYADSVKGRFTISRDNSKNTLYLQMNSLRAEDTAVYYCARLQGVQSDEVYYNYFDVWGQGTLVTVSS
recorded-result: 633

(P) vhhLib02-26 (VHH, The entry as printed includes HHHHHH) VHH: EVQLVESGGGLVQPGGSLRLSCAASGFTFSAYIMSWYRQAPGKQRELVGAIVSGGLTYYADSVKGRFTISRDNSKNTLYLQMNSLRAEDTAVYYCARHWRWYDSNLVFDLWGQGTLVTVSS
(Q) vhhLib02-93 (VHH, The entry as printed includes HHHHHH) VHH: EVQLVESGGGLVQPGGSLRLSCAASGFTFSDYHMSWYRQAPGKQREPVSVINSGGYTYYADSVKGRFTISRDNSKNTLYLQMNSLRAEDTAVYYCARAQAAHYLYGYFDIWGQGTLVTVSS
(R) vhhLib05-49 (VHH, also called 20BHK) VHH: EVQLLESGGGLVQPGGSLRLSCAASGFTFSSYAMSWVRQAPGKQREWVSAISGSGGSTYYADSVKGRFTISRDNSKNTLYLQMNSLRAEDTAVYYCARDTNQPYHGRYVYTYDFDVWGQGTLVTVSS
Rank ascending by Kd. Ranked list of labels, please, in the requested order. R, P, Q
(R: 5.3 nM, P: 249 nM, Q: 469 nM)

Source listed as patent US20230365667A1.
